Molecular target: T1, recombinant human regenerating islet-derived protein 1α (REG1A) (human, UniProt P05451 23-166, limits assumed)
T1 construct: also called recombinant human REG1A; recombinant REG1A
T1 sequence (looked up): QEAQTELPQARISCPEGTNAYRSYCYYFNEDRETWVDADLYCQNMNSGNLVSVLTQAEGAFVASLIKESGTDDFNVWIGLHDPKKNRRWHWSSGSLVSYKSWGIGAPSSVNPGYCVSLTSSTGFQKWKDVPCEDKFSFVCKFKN
Experiment: sandwich ELISA; capture 25F3C4; REG1A 1.23 ng/mL
Measurement Label: OD value
For clarity, give the value followed by its unit.

Please look at the items below and tell me OD value for each one, in order.
1. antibody 21B11D2 (antibody, mouse IgG2b, kappa, V domains shown, Mouse monoclonal from hybridoma, stated mouse IgG1/Kappa; Used unlabelled as capture and biotin-labelled as detection antibody; also called 21B11D2-biotin) VH: QAQLQQSGAELVRPGASVTLSCKASGYIFTDYEMHWVKQTPVHGLEWIGAIDPETGGTAYNQKFKGKARLTADKSSSTAYMELRSLTSEDSAVYYCTIYYTNHFDYWGQGTTLTVSS VL: DVVMTQTPLSLPVSLGDQASISCRSSQSLVYSNGDTYLYWYLQKPGQSPKLLIYKVSNRFSGVPDRFSGSGSGTDFTLKISRVEAEDLGVYFCSQSTHVPLTFGAGTKLELKR
2. antibody 11D11B11 (antibody, mouse IgG2a, kappa, V domains shown, Mouse monoclonal from hybridoma, stated mouse IgG1/Kappa; Used unlabelled as capture and biotin-labelled as detection antibody; also called 11D11B11-biotin) VH: DVKLVESGGGLVKPGGSLKLSCAASGFTFSSFSMSWFRQTPDKRLEWVATISSGGSSTYYPDSVKGRFTISRDNAKNTLYLQMTSLKSEDTAIFYCRGGYYGNYDPLDYWGQGTSVTVSA VL: DIVMIQSQKFMSTSVGDRVSITCTASHNVDSNVAWYQQKPGQSPQALIYSASYRYSGVPDRFTGSGSGTDFTLTINNVQSEDLAEYFCQQYNSYPLTFGGGTRLEIKR
3. antibody 12F12A10 (antibody, V domains shown, Mouse monoclonal from hybridoma, stated mouse IgG1/Kappa; also called 12F12A10-biotin; Antibody 2) VH: QVQLQQSATELARPGASVKMSCKASGYTFTSYMMHWVKQRPGQGLEWIGYINPSSGYTDYNQKFKDKTTLTADKSSSTAYMQLSSLTSEDSAVYYCARYRYPHYFDYWGQGTTLTVSS VL: QIVLTQSPAIMSASPGEKVTMTCSASSSVSYIHWYQQKSGTSPKRWIYDTSKLASGVPARFSGSGSGTSYSLTISSMEAEDAAIYYCQQWSSNPPTFGAGTKLELKR
4. antibody 4H8F1 (antibody, V domains shown, Mouse monoclonal from hybridoma, stated mouse IgG1/Kappa; also called 4H8F1-biotin; Antibody 1) VH: QVTLKESGPGILQPSQTLSLTCSFSGFSLSTSGMSVGWIRQPSGKGLEWLAHIWWNDDKFYNPALKSRLTISKDTSKNQIFLKIASVVTADSATYYCARIEEGWFAYWGQGTLVTVST VL: SIVMTQTPKFLLVSVGDRVTITCKASQTMSNDVAWYQQKPGQSPKLLIYYASNRYTGVPDRFTGSGYGTDFTFTISTVQAEDLAVYFCQQDYSSPLTFGAGTKLELKR

1. 0.066 OD
2. 0.071 OD
3. 3.76 OD
4. 0.087 OD
